- RUN DESCRIPTION: Inhibitory activity against Serum amine oxidase
READOUT TYPE: Ki (µM)
Write the value in µM as a bare number.

- CC(=O)N1N=C(c2ccccc2O)CC1c1ccccc1C (configuration not stated): 57

Would you mind telling me what Ki value was observed for CC(=O)N1N=C(c2ccc(O)cc2O)CC1c1cccc(C)c1 (configuration not stated) ?
10

* * *

- TARGET OR SYSTEM: Monoamine oxidase (Bos taurus, UniProt P56560+P21398)
- RUN DESCRIPTION: Inhibitory activity against Monoamine oxidase from Bovine brain mitochondria
READOUT TYPE: log10 of Ki (log10 of the value in µM)
log10 Ki, µM

• CC(=O)N1N=C(c2ccc(O)cc2O)CC1c1cccc(C)c1 (stereo unspecified) = -1.30
• CC(=O)N1N=C(c2ccc(O)cc2O)CC1c1ccccc1C (stereo unspecified) = -1.10
• CC(=O)N1N=C(c2ccccc2)CC1c1cccc(C)c1 (stereo unspecified) = 2.30
• CC(=O)N1N=C(c2ccccc2)CC1c1ccc(Cl)cc1 (stereo unspecified) = 0.78
• CC(=O)N1N=C(c2ccccc2O)CC1c1ccccc1C (stereo unspecified) = 2.48

Turning now to a further record.
Would you mind telling me what log10 of Ki value was observed for CC(=O)N1N=C(c2ccccc2O)CC1c1cccc(C)c1 (stereo unspecified) ?
0.74
